Exercise: for every item that follows, state its recorded Rm.
Assay: Log P from reversed-phase TLC Rf/Rm values (MeOH in water mobile phases)
Details: 60% MeOH in water; calculated from Rf
Answers are plain numbers.

A selection of reference data follows.
O=C(OC1COC2C(OC(=O)c3cccnc3)COC12)c1ccccc1 (stereo not drawn) [Isosorbide-2-Benzoate-5-nicotinate, Isosorbide 2-benzoate-5-nicotinate] : 0.5860
CCC(=O)OC1COC2C(OC(=O)c3cccnc3)COC12 (stereo not drawn) [Isosorbide-2-Propionate-5-nicotinate, Isosorbide 2-propionate-5-nicotinate] : 0.1047
CCCC(=O)O[C@H]1CO[C@H]2[C@@H]1OC[C@H]2OC(=O)c1cccnc1 [Isosorbide-2-Butyrate-5-nicotinate, Isosorbide 2-butyrate-5-nicotinate] : 0.2631
O=[N+]([O-])O[C@@H]1CO[C@H]2[C@@H]1OC[C@@H]2O [ISMN, isosorbide mononitrate, reference compound] : −0.3680
CC(=O)OC1COC2C(OC(=O)c3cccnc3)COC12 (stereo not drawn) [Isosorbide-2-Acetate-5-nicotinate, Isosorbide 2-acetate-5-nicotinate] : −0.0348

In the following, a different compound is considered.
Recorded Rm for COC(=O)c1ccccc1 [Methyl Benzoate, methyl benzoate, reference compound] , please?
0.2499

###

Exercise: for every item that follows, state its recorded Extrapolated Rm (y value).
Experiment: Log P from reversed-phase TLC Rf/Rm values (MeOH in water mobile phases)
Settings: theoretical Rm at 0% organic modifier
Answers are plain numbers.

O=[N+]([O-])O[C@@H]1CO[C@H]2[C@@H]1OC[C@@H]2O [ISMN, isosorbide mononitrate, reference compound] : 0.176
COC(=O)c1ccccc1 [Methyl Benzoate, methyl benzoate, reference compound] : 1.845
CC(=O)Nc1ccc(O)cc1 [Paracetamol, paracetamol, reference compound] : 0.7116

Recorded Extrapolated Rm (y value) for CC(=O)Oc1ccccc1C(=O)O[C@H]1COC2C1OC[C@H]2OC(=O)c1cccnc1 (stereo partly shown) [ST0702, Isosorbide-2-aspirinate-5-nicotinate] , please?
3.0977

###

Experiment: Log P from reversed-phase TLC Rf/Rm values (MeOH in water mobile phases)
Conditions: 40% MeOH in water; calculated from Rf
Threshold check on Rm: strictly below 0.8 is Criterion met; on or above 0.8 is Criterion not met.

O=C(OC1COC2C(OC(=O)c3cccnc3)COC12)c1ccccc1 (stereo not drawn) [Isosorbide-2-Benzoate-5-nicotinate, Isosorbide 2-benzoate-5-nicotinate] : Criterion not met
COC(=O)c1ccccc1 [Methyl Benzoate, methyl benzoate, reference compound] : Criterion met
CC(=O)Oc1ccccc1C(=O)O[C@H]1COC2C1OC[C@H]2OC(=O)c1cccnc1 (stereo partly drawn) [ST0702, Isosorbide-2-aspirinate-5-nicotinate] : Criterion not met
O=[N+]([O-])O[C@@H]1CO[C@H]2[C@@H]1OC[C@@H]2O [ISMN, isosorbide mononitrate, reference compound] : Criterion met
CCCC(=O)O[C@H]1CO[C@H]2[C@@H]1OC[C@H]2OC(=O)c1cccnc1 [Isosorbide-2-Butyrate-5-nicotinate, Isosorbide 2-butyrate-5-nicotinate] : Criterion not met

Problem: For the molecule CCC(=O)OC1COC2C(OC(=O)c3cccnc3)COC12 (stereo not drawn) [Isosorbide-2-Propionate-5-nicotinate, Isosorbide 2-propionate-5-nicotinate] , is Rm under 0.8?
Criterion met

###

Exercise: for every item that follows, state its recorded Rm.
Test: Log P from reversed-phase TLC Rf/Rm values (MeOH in water mobile phases)
Details: 40% MeOH in water; calculated from Rf
Answers are plain numbers.

A selection of reference data follows.
CC(=O)OC1COC2C(OC(=O)c3cccnc3)COC12 (stereo not drawn) [Isosorbide-2-Acetate-5-nicotinate, Isosorbide 2-acetate-5-nicotinate] : 0.3973
CC(=O)Nc1ccc(O)cc1 [Paracetamol, paracetamol, reference compound] : −0.0801

In the following, a different compound is considered.
Recorded Rm for CCCCC(=O)O[C@H]1CO[C@H]2[C@@H]1OC[C@H]2OC(=O)c1cccnc1 [Isosorbide-2-Valeroate-5-nicotinate, Isosorbide 2-valeroate-5-nicotinate] , please?
1.2521
